Overview of reported cell viability across a group of compounds:
# System: P12-Ichikawa
# Assay Procedure: cell viability relative to DMSO control; higher = less cytotoxic
# Run Parameters: RPMI 5 mM glucose + 10% dialyzed FBS; 48 h; 1.71 µM
Write down the numeric answer in % and omit the unit.

These solved cases illustrate the format of a correct answer.
Item Smiles | Data Value
O=C(O)C(=O)c1cn(Cc2ccccc2)c2ccc(-c3ccc(OC(F)(F)F)cc3)cc12 | 91.6
Cc1coc2c1C(=O)C(=O)c1c-2ccc2c1CCCC2(C)C | 87.8

Please report the recorded cell viability for "C[C@]12CC[C@H]3[C@@H](CCC4=CC(=O)CC[C@@H]43)[C@@H]1CC[C@@H]2OC(=O)CCc1ccccc1" .
123

Bench note: what cell viability did "O=C(O)c1cc(/N=N/c2ccc([S+](=O)([O-])Nc3ccccn3)cc2)ccc1O" show?
120

---

# Test system: NOMO1
# Assay Procedure: cell viability relative to DMSO control; higher = less cytotoxic
# Run Parameters: HPLM + 10% dialyzed FBS; 48 h; 0.000781 µM
Here the recorded cell viability is given for each entry.
Numbers only; they are read as %.

Molecule | cell viability / %
CCOC(=O)\C1=C\[C@]2(CC)CCCN3CCC4=C([C@H]23)[N]1C5=C4C=CC=C5 | 104
CN1CCCN(CC1)C2=CC=C3C(=O)\C(=C/4SC5=C(C=CC=C5)N4C3=N2)C(=O)NCC6=CN=C(C)C=N6 | 127
COc1cc[nH]c2ncc(C(=O)C(=O)N3CCN(C(=O)c4ccccc4)C[C@H]3C)c1-2 | 137
COc1cccc2c1C(=O)c1c(O)c3c(c(O)c1C2=O)C[C@@](O)(C(=O)CO)C[C@@H]3O[C@H]1C[C@H](N)[C@H](O)[C@H](C)O1 | 112
NC[C@H]1O[C@H](O[C@@H]2[C@H](O)[C@@H](O[C@H]3O[C@H](CO)[C@@H](O)[C@H](N)[C@H]3O)[C@H](N)C[C@@H]2N)[C@H](O)[C@@H](O)[C@@H]1O | 132

Using the record for Cc1ccccc1C(=O)Nc1ccc(C(=O)N2CCCC(O)c3cc(Cl)ccc32)c(C)c1 (stereo unspecified) , report its cell viability.
129

---

# Tested on: P12-Ichikawa
# Assay Procedure: cell viability relative to DMSO control; higher = less cytotoxic
# Run Parameters: HPLM + 10% dialyzed FBS; 48 h; 0.0211 µM
Quantity Kind: cell viability (%)
Number in %, nothing else.

Solved cases below.
Compound | System Name | Unit Tag | cell viability
COc1cc[nH]c2ncc(C(=O)C(=O)N3CCN(C(=O)c4ccccc4)C[C@H]3C)c1-2 | P12-Ichikawa | % | 111
Cc1ccnc2c1NC(=O)c1cccnc1N2C1CC1 | P12-Ichikawa | % | 106
C[C@@H]1CCO[C@H]2CN\3/C=C(/C(=O)NCC4=C(F)C=C(F)C=C4)C(=O)\C(=C3C(=O)N12)O | P12-Ichikawa | % | 109
COc1cc2c(cc1OC)CN(CCc1ccc(NC(=O)c3cc(OC)c(OC)cc3NC(=O)c3cnc4ccccc4c3)cc1)CC2 | P12-Ichikawa | % | 114
CC(C)OC(=O)[C@H](C)N[P@](=O)(OC[C@H]1O[C@@H](N2\C=C/C(=O)NC2=O)[C@](C)(F)[C@@H]1O)OC3=CC=CC=C3 | P12-Ichikawa | % | 110
Cc1cc2c(C(N)=O)cccc2n1-c1nc2c(c(NCc3ccccc3)n1)COCC2 | P12-Ichikawa | % | 93.2
O=C(c1ccccc1)c1ccc2n1CCC2C(=O)O (centres undefined) | P12-Ichikawa | % | 111
CCOC(=O)\C1=C\[C@]2(CC)CCCN3CCC4=C([C@H]23)[N]1C5=C4C=CC=C5 | P12-Ichikawa | % | 104

Moving on to another compound below.
Record lookup: for P12-Ichikawa, what cell viability belongs to "O=C(O)c1cccnc1Nc1cccc(C(F)(F)F)c1" ?
118

---

# Test system: SEM cells
# Assay Procedure: cell viability relative to DMSO control; higher = less cytotoxic
# Run Parameters: HPLM + 10% dialyzed FBS; 48 h; 46.1 µM
Quantity Kind: cell viability (%)
Respond numerically; units are % and should not be typed.

Consider the worked cases shown below.
Item Smiles | Unit Tag | Data Value
O=C(O)C(=O)c1cn(Cc2ccccc2)c2ccc(-c3ccc(OC(F)(F)F)cc3)cc12 | % | 97.5
O=P(O)(O)C(O)(Cn1ccnc1)P(=O)(O)O | % | 99.1
Cc1ccnc2c1NC(=O)c1cccnc1N2C1CC1 | % | 111
COc1c(C)c2c(c(O)c1C/C=C(\C)CCC(=O)O)C(=O)OC2 | % | 33.3

Turning now to a further compound:
Value lookup for cell viability; key = "NC(=O)c1ccc(N(C(N)=O)c2c(F)cccc2F)nc1-c1ccc(F)cc1F"
77.5

---

# Tested on: SEM cells
# Assay Procedure: cell viability relative to DMSO control; higher = less cytotoxic
# Run Parameters: RPMI 5 mM glucose + 10% dialyzed FBS; 48 h; 5.12 µM
Measured cell viability, listed per entry.
State the answer as a number, implicitly in %.

Compound | cell viability [%]
Nc1ccc([S+](=O)([O-])Nc2ccnn2-c2ccccc2)cc1 | 115
COC1=C(OCCCN2CCOCC2)C=C3N=CC=C(OC4=CC=C(C=C4F)\C5=C\N=C(\NC6=CC=C(F)C=C6)N(C)C5=O)C3=C1 | 43
Nc1ncnc2c1ncn2[C@@H]1O[C@H](CO)C[C@H]1O | 91.1
CC(C)(O)CC(=O)NCCn1ccc2ncnc(Nc3ccc(Oc4cccc(C(F)(F)F)c4)c(Cl)c3)c21 | 90.4
Cc1ccc([S+](=O)([O-])OCC(=O)Nc2ccc(C(=O)O)c(O)c2)cc1 | 144

Given C=C[C@H]1CN2CCC1C[C@@H]2C(O)c1ccnc2ccc(OC)cc12 (some centres not stated) , state its recorded cell viability.
131

Quick one: cell viability for "CC[C@H]1OC(=O)[C@H](C)C(=O)[C@H](C)[C@@H](O[C@H]2O[C@H](C)C[C@H](N(C)C)[C@H]2O)[C@](C)(OC)C[C@@H](C)C(=O)[C@H](C)[C@H]2N(CCCCn3cnc(-c4cccnc4)c3)C(=O)O[C@]12C" ?
104

---

# Test system: SEM cells
# Assay Procedure: cell viability relative to DMSO control; higher = less cytotoxic
# Run Parameters: RPMI 5 mM glucose + 10% FBS; 48 h; 46.1 µM
Entries and their cell viability values follow.
Kindly answer with a numeric value in %, unit omitted.

Observe how each entry below is paired with its result.
Compound | cell viability [%]
COC(=O)C\1=C(C)\N\C(=C(/C1C2=CC=CC3=NON=C23)C(=O)OC(C)C)C (stereo not given) | 78.6
CNCC[C@H](Oc1cccc2ccccc12)c1cccs1 | 24
CC(C(=O)O)c1ccc2c(c1)CC(=O)c1ccccc1S2 (stereo not given) | 96.5
O=C(O)C(=O)c1cn(Cc2ccccc2)c2ccc(-c3ccc(OC(F)(F)F)cc3)cc12 | 88.1
COC1=C(OCCCN2CCOCC2)C=CC\3=C1/N=C(/NC(=O)C4=CN=C(N)N=C4)N5CC/N=C35 | 42.8

# value lookup — system SEM cells, readout cell viability, item "Nc1ccc([S+](=O)([O-])Nc2ccnn2-c2ccccc2)cc1"
116

---

# Test system: SEM cells
# Assay Procedure: cell viability relative to DMSO control; higher = less cytotoxic
# Run Parameters: HPLM + 10% dialyzed FBS; 48 h; 0.0211 µM
The following molecules are shown together with reported cell viability values.
Respond numerically; units are % and should not be typed.

Item Smiles | System Name | cell viability, %
Cc1cccc(Nc2ccncc2[S+](=O)([O-])NC(=O)NC(C)C)c1 | SEM cells | 92.4
Cc1coc2c1C(=O)C(=O)c1c-2ccc2c1CCCC2(C)C | SEM cells | 102
CN1CC(=O)N2[C@H](c3ccc4c(c3)OCO4)c3[nH]c4ccccc4c3C[C@@H]2C1=O | SEM cells | 96.3
O=c1cc(-c2ccc(O)c(O)c2)oc2cc(O)cc(O)c12 | SEM cells | 127

--- query ---
Look up cell viability for this molecule: "C[C@@H]1CCO[C@H]2CN\3/C=C(/C(=O)NCC4=C(F)C=C(F)C=C4)C(=O)\C(=C3C(=O)N12)O"
104

---

# Tested on: P12-Ichikawa
# Assay Procedure: cell viability relative to DMSO control; higher = less cytotoxic
# Run Parameters: RPMI 5 mM glucose + 10% FBS; 48 h; 5.12 µM
Mark label 1 for cell viability under 90%, label 0 if at or over.

Molecule | Assigned Label
COC1=C(OCCCN2CCOCC2)C=CC\3=C1/N=C(/NC(=O)C4=CN=C(N)N=C4)N5CC/N=C35 | label 1
CN(C)CC(C)(C)CNc1nn2c(-c3ccccc3)nnc2cc1C1CCC1 | label 1
CNc1nc(Nc2cnn([C@H]3CCN(C4COC4)C[C@@H]3F)c2Cl)ncc1C(F)(F)F | label 1
Nc1ncnc2c1ncn2[C@@H]1O[C@H](CO)C[C@H]1O | label 1
CCCCN(CCCC)CC(O)c1cc(Cl)cc2c1-c1ccc(Cl)cc1/C2=C/c1ccc(Cl)cc1 (stereo not given) | label 0
O=C(c1ccccc1)c1ccc2n1CCC2C(=O)O (stereo not given) | label 1
Nc1ccc([S+](=O)([O-])Nc2ccnn2-c2ccccc2)cc1 | label 0
N[C@@H]1CONC1=O | label 0

Just wondering, is cell viability of "CC[C@H]1OC(=O)[C@H](C)C(=O)[C@H](C)[C@@H](O[C@H]2O[C@H](C)C[C@H](N(C)C)[C@H]2O)[C@](C)(OC)C[C@@H](C)C(=O)[C@H](C)[C@H]2N(CCCCn3cnc(-c4cccnc4)c3)C(=O)O[C@]12C" below 90%?
label 0

Hi there! Is cell viability for "Cc1cccc(Nc2ccncc2[S+](=O)([O-])NC(=O)NC(C)C)c1" below 90%, do you know?
label 0

Quick check: does "COC1=CC=C(C(=C1)OC(C)C)C/2=N/[C@@H]([C@@H](N2C(=O)N3CCNC(=O)C3)C4=CC=C(Cl)C=C4)C5=CC=C(Cl)C=C5" have cell viability under 90%?
label 0

Is it true that cell viability reported for "Cc1ccnc2c1NC(=O)c1cccnc1N2C1CC1" is less than 90%?
label 0

I'd appreciate it if you could check whether "O=C(O)c1cccnc1Nc1cccc(C(F)(F)F)c1" has cell viability smaller than 90%.
label 0

Identify whether the molecule "CCOC(=O)\C1=C\[C@]2(CC)CCCN3CCC4=C([C@H]23)[N]1C5=C4C=CC=C5" records cell viability below 90%.
label 0

In plain terms, does COC(=O)C\1=C(C)\N\C(=C(/C1C2=CC=CC3=NON=C23)C(=O)OC(C)C)C (stereo not given) come in under 90% for cell viability?
label 1

Is the reported cell viability for "C=CC(=O)Nc1cc2c(Nc3ccc(F)c(Cl)c3)ncnc2cc1OCCCN1CCOCC1" strictly below 90%?
label 0

Decide: cell viability of "CC(C)(O)CC(=O)NCCn1ccc2ncnc(Nc3ccc(Oc4cccc(C(F)(F)F)c4)c(Cl)c3)c21" strictly below 90%?
label 0

Answer whether the molecule "CCCNC(=O)Nc1ccc(Oc2ncnc3cc(OC)c(OC)cc23)cc1Cl" has cell viability strictly less than 90%
label 1
